These measurements were taken from paper doi:10.1101/2025.11.17.685403.

Target: T1, RFS1 E138A (Walker B);RIP1 (cShu subunit);SWS1 (cShu subunit) (Caenorhabditis elegans;Caenorhabditis …, UniProt P34348;Q21621;Q8MYM5 1-245;1-209;1-191, E138A||)
T1 sequence 1: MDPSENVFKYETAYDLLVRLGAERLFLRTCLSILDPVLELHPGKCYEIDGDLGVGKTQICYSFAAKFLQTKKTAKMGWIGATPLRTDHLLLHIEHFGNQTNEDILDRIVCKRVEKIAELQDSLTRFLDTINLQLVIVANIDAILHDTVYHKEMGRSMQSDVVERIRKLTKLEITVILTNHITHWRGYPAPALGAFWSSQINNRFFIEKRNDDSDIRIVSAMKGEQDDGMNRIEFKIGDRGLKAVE
T1 sequence 2: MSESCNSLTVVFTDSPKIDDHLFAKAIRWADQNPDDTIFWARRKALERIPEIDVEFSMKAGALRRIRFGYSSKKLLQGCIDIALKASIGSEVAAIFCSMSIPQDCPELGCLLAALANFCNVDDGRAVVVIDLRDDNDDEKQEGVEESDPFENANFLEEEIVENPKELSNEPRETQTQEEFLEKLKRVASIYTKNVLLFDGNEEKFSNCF
T1 sequence 3: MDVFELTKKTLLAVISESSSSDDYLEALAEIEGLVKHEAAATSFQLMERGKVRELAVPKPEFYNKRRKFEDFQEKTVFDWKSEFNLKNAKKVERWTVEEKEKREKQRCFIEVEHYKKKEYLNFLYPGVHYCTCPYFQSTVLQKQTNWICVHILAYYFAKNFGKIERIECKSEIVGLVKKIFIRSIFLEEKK
Test: fluorescence polarization
Parameter: pKd. Scope: all listed entries.
Please report pKd as the negative decimal logarithm of the molar concentration, giving only the number.

Challenge: Look up and report measured pKd for this entry: Fork (20 nt) (mixed) DNA 1: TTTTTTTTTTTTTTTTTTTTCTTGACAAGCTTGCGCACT DNA 2: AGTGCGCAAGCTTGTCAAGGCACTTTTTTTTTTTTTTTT
Response given: 6.85

Challenge: Determine its reported pKd: 5'-overhang (20 nt) (mixed) DNA 1: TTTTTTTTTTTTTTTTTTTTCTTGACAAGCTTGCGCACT DNA 2: AGTGCGCAAGCTTGTCAAG
Response given: 6.12

Challenge: Consider the binder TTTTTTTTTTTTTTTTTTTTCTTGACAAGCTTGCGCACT (ssDNA) [ss39] and give its recorded pKd.
Response given: 6.00
